target under test: CYP1A2 (Homo sapiens)
protocol notes: in vitro

{"columns": ["molecule", "target under test", "inhibition at 100 µM"],
 "data": [
  ["CCc1ccc(CCOc2ccc(CC3SC(=O)NC3=O)cc2)nc1 (stereo not given)", "CYP1A2 (Homo sapiens)", "< 10%"],
  ["CCc1oc2ccccc2c1C(=O)c1cc(Br)c(O)c(Br)c1", "CYP1A2 (Homo sapiens)", "12%"],
  ["CCCc1nc(C(C)(C)O)c(C(=O)O)n1Cc1ccc(-c2ccccc2-c2nnn[nH]2)cc1", "CYP1A2 (Homo sapiens)", "< 10%"],
  ["CN(CCOc1ccc(CC2SC(=O)NC2=O)cc1)c1ccccn1 (stereo not given)", "CYP1A2 (Homo sapiens)", "< 10%"],
  ["Cc1c(N(C)C)c(=O)n(-c2ccccc2)n1C", "CYP1A2 (Homo sapiens)", "< 10%"],
  ["CCCC(CCC)C(=O)O", "CYP1A2 (Homo sapiens)", "< 10%"],
  ["CN(C)CCCN1c2ccccc2CCc2ccccc21", "CYP1A2 (Homo sapiens)", "< 10%"],
  ["CN1CCN(C2=Nc3cc(Cl)ccc3Nc3ccccc32)CC1", "CYP1A2 (Homo sapiens)", "12%"],
  ["O=C1NC(=O)C(c2ccccc2)(c2ccccc2)N1", "CYP1A2 (Homo sapiens)", "< 10%"],
  ["CC(=O)Nc1ccc(O)cc1", "CYP1A2 (Homo sapiens)", "< 10%"]
]}

###

target under test: CYP1A2 (Homo sapiens, UniProt P05177)
Sequence (P05177 whole entry): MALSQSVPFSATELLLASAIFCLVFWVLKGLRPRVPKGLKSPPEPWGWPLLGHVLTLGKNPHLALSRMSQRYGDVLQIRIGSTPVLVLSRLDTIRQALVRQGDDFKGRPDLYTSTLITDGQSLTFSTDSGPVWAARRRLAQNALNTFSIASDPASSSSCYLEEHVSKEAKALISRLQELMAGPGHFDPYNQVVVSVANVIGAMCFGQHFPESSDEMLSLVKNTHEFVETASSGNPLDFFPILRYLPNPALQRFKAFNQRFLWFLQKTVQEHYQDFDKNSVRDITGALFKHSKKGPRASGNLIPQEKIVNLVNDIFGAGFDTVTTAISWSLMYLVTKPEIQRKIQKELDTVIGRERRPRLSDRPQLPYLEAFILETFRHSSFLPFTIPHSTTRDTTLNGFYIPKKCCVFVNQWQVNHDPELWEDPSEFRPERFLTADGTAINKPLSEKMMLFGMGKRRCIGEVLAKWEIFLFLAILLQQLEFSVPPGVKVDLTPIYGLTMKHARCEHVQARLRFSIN
protocol notes: in vitro
Reported inhibition at 100 µM is given for each of the following compounds.

{"columns": ["compound", "inhibition at 100 µM"],
 "data": [
  ["CC[C@H]1OC(=O)[C@H](C)[C@@H](O[C@H]2C[C@@](C)(OC)[C@@H](O)[C@H](C)O2)[C@H](C)[C@@H](O[C@@H]2O[C@H](C)C[C@H](N(C)C)[C@H]2O)[C@](C)(O)C[C@@H](C)C(=O)[C@H](C)[C@@H](O)[C@]1(C)O", "< 10%"],
  ["CCCCC(=O)N(Cc1ccc(-c2ccccc2-c2nnn[nH]2)cc1)[C@H](C(=O)O)C(C)C", "< 10%"],
  ["Cc1ccc(-c2cc(C(F)(F)F)nn2-c2ccc(S(N)(=O)=O)cc2)cc1", "< 10%"],
  ["Nc1c2c(nc3ccccc13)CCCC2", "28%"],
  ["COC(=O)[C@H](c1ccccc1Cl)N1CCc2sccc2C1", "< 10%"],
  ["NC(=O)N1c2ccccc2C=Cc2ccccc21 [CARBAMAZEPINE]", "< 10%"],
  ["CCOC(=O)C1=C(COCCN)NC(C)=C(C(=O)OC)C1c1ccccc1Cl (stereo not drawn)", "< 10%"],
  ["CC(C)C(=O)Nc1ccc([N+](=O)[O-])c(C(F)(F)F)c1 [FLUTAMIDE]", "< 10%"]
]}

###

Reported inhibition at 30 µM is given for each of the following molecules.
target under test: CYP2D6 (Homo sapiens)
Sequence (P10635 whole entry): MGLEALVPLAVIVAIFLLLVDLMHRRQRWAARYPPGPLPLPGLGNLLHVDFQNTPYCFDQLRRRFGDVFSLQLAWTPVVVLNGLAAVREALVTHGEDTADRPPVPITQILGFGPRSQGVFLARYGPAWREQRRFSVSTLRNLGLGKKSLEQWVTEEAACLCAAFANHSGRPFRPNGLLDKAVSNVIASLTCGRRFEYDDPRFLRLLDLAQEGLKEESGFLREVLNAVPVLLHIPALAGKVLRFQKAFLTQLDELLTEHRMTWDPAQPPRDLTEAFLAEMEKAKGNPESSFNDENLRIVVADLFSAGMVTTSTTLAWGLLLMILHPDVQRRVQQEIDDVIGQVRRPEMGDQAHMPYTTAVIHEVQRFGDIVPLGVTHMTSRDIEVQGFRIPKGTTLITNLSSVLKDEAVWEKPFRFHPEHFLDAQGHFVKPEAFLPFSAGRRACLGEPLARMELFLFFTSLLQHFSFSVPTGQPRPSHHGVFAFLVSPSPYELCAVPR
protocol notes: Time dependent inhibition of CYP2D6 (unknown origin) at 30 uM by LC/MS system
Assay type: ADME

{"columns": ["molecule", "target under test", "inhibition at 30 µM"],
 "data": [
  ["CCOC(=O)C1=C(COCCN)NC(C)=C(C(=O)OC)C1c1ccccc1Cl (configuration not stated)", "CYP2D6 (Homo sapiens)", "< 10%"],
  ["Cc1ccc(-c2cc(C(F)(F)F)nn2-c2ccc(S(N)(=O)=O)cc2)cc1", "CYP2D6 (Homo sapiens)", "< 10%"]
]}

###

Test system: Liver microsome
protocol notes: Metabolic activation in human liver microsomes assessed as [3H]GSH adduct formation rate measured per mg of protein at 100 uM by [3H]GSH trapping assay

{"columns": ["molecule", "Drug metabolism"],
 "data": [
  ["CC/C(=C(\\c1ccccc1)c1ccc(OCCN(C)C)cc1)c1ccccc1", "metabolite_not_detected"],
  ["Cc1c(N(C)C)c(=O)n(-c2ccccc2)n1C", "metabolite_not_detected"],
  ["CN(CCOc1ccc(CC2SC(=O)NC2=O)cc1)c1ccccn1 (stereo not drawn)", "2.2 pmol/min"],
  ["Cc1ccc(-c2cc(C(F)(F)F)nn2-c2ccc(S(N)(=O)=O)cc2)cc1", "metabolite_not_detected"],
  ["O=C(O)Cc1ccccc1Nc1c(Cl)cccc1Cl", "1 pmol/min"],
  ["Nc1c2c(nc3ccccc13)CCCC2", "metabolite_not_detected"],
  ["COc1ccc2c(c1)c(CC(=O)O)c(C)n2C(=O)c1ccc(Cl)cc1", "metabolite_not_detected"],
  ["COC(=O)[C@H](c1ccccc1Cl)N1CCc2sccc2C1", "23.6 pmol/min"],
  ["CCCc1nc(C(C)(C)O)c(C(=O)O)n1Cc1ccc(-c2ccccc2-c2nnn[nH]2)cc1", "metabolite_not_detected"],
  ["CC(=O)CC(c1ccccc1)c1c(O)c2ccccc2oc1=O (stereo not drawn)", "metabolite_not_detected"],
  ["C[C@H]1COc2c(N3CCN(C)CC3)c(F)cc3c(=O)c(C(=O)O)cn1c23.C[C@H]1COc2c(N3CCN(C)CC3)c(F)cc3c(=O)c(C(=O)O)cn1c23.O", "metabolite_not_detected"],
  ["Cc1cc2c(s1)Nc1ccccc1N=C2N1CCN(C)CC1", "11.3 pmol/min"],
  ["CC(C)c1nc(CN(C)C(=O)N[C@H](C(=O)N[C@@H](Cc2ccccc2)C[C@H](O)[C@H](Cc2ccccc2)NC(=O)OCc2cncs2)C(C)C)cs1", "metabolite_not_detected"],
  ["CCOC(=O)C1=C(COCCN)NC(C)=C(C(=O)OC)C1c1ccccc1Cl (stereo not drawn)", "metabolite_not_detected"],
  ["C#C[C@]1(O)CC[C@H]2[C@@H]3CCc4cc(O)ccc4[C@H]3CC[C@@]21C", "34 pmol/min"],
  ["Cc1cc(CC(=O)O)n(C)c1C(=O)c1ccc(Cl)cc1 [ZOMEPIRAC]", "metabolite_not_detected"],
  ["CC[C@H]1OC(=O)[C@H](C)[C@@H](O[C@H]2C[C@@](C)(OC)[C@@H](O)[C@H](C)O2)[C@H](C)[C@@H](O[C@@H]2O[C@H](C)C[C@H](N(C)C)[C@H]2O)[C@](C)(O)C[C@@H](C)C(=O)[C@H](C)[C@@H](O)[C@]1(C)O", "metabolite_not_detected"],
  ["NC(=O)N1c2ccccc2C=Cc2ccccc21 [CARBAMAZEPINE]", "metabolite_not_detected"]
]}

###

target under test: CYP3A4 (Homo sapiens, UniProt P08684)
Sequence (P08684 whole entry): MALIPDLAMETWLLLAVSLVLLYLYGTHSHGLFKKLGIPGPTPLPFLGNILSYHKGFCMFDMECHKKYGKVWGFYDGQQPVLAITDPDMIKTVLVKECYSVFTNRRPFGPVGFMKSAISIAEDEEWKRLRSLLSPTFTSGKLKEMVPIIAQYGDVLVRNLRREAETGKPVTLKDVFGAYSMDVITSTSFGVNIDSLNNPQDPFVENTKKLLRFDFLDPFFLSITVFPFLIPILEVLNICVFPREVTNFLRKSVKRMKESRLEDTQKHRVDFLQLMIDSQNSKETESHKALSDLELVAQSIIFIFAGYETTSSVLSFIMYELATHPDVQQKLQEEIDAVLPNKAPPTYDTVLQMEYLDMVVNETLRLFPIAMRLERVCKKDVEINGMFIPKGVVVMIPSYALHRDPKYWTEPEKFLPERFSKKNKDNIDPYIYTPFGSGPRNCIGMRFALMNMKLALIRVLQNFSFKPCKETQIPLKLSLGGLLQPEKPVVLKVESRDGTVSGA
protocol notes: in vitro
Reported inhibition at 100 µM is given for each of the following molecules.
recorded endpoint: inhibition at 100 µM

{"columns": ["molecule", "recorded endpoint", "recorded value"],
 "data": [
  ["Cc1cc2c(s1)Nc1ccccc1N=C2N1CCN(C)CC1", "inhibition at 100 µM", "< 10%"],
  ["O=C1NC(=O)C(c2ccccc2)(c2ccccc2)N1", "inhibition at 100 µM", "< 10%"],
  ["CCOC(=O)C1=C(COCCN)NC(C)=C(C(=O)OC)C1c1ccccc1Cl (centres undefined)", "inhibition at 100 µM", "42%"],
  ["CCCC(CCC)C(=O)O", "inhibition at 100 µM", "< 10%"],
  ["CC(C)C(=O)Nc1ccc([N+](=O)[O-])c(C(F)(F)F)c1 [FLUTAMIDE]", "inhibition at 100 µM", "< 10%"],
  ["Cc1ccnc2c1NC(=O)c1cccnc1N2C1CC1", "inhibition at 100 µM", "< 10%"],
  ["COc1ccc(CCN(C)CCCC(C#N)(c2ccc(OC)c(OC)c2)C(C)C)cc1OC (centres undefined)", "inhibition at 100 µM", "51%"],
  ["O=C(O)Cc1ccccc1Nc1c(Cl)cccc1Cl", "inhibition at 100 µM", "< 10%"],
  ["CN(C)CCCN1c2ccccc2CCc2ccccc21", "inhibition at 100 µM", "< 10%"],
  ["Cn1c(=O)c2c(ncn2C)n(C)c1=O", "inhibition at 100 µM", "< 10%"],
  ["Clc1ccccc1CN1CCc2sccc2C1", "inhibition at 100 µM", "26%"],
  ["Cc1c(N(C)C)c(=O)n(-c2ccccc2)n1C", "inhibition at 100 µM", "< 10%"],
  ["CCCCC(=O)N(Cc1ccc(-c2ccccc2-c2nnn[nH]2)cc1)[C@H](C(=O)O)C(C)C", "inhibition at 100 µM", "< 10%"],
  ["CC[C@H](C)C(=O)O[C@H]1C[C@H](O)C=C2C=C[C@H](C)[C@H](CC[C@@H](O)C[C@@H](O)CC(=O)O)[C@H]21", "inhibition at 100 µM", "< 10%"]
]}
